# procedure.text: physchem
# Assay type: physicochemical
# protocol.conditions: water, thermodynamic from solid, saturation solubility in water
result.type: solubility

Query :: Need solubility, item COc1ccc2[nH]cc(CCNC(C)=O)c2c1 [Melatonin]
Result :: ~1750 µg/mL
